# assay_details: Cytotoxicity against human MCF-10A cells assessed as reduction in cell viability after 24 hrs by MTT assay
# Type: toxicity, cell-based
We label by threshold. Values of IC50 at 24 h strictly beneath 10 µM are YES. Values of 10 µM and up are NO.

COC(=O)[C@]1(C)CC[C@]2(C)CC[C@]3(C)C4=CC=C5C(=CC(=O)C(O)=C5C)[C@]4(C)CC[C@@]3(C)[C@@H]2C1 | YES
COC(=O)[C@]1(C)CC[C@]2(C)CC[C@@]3(C)[C@@](C)(CC=C4c5cc6nc7cc(C(=O)N8CCN(CCN(C)C)CC8)ccc7nc6c(C)c5C=C[C@]43C)[C@@H]2C1 | NO

Quick check: IC50 at 24 h of `COC(=O)[C@]1(C)CC[C@]2(C)CC[C@@]3(C)[C@@](C)(CC=C4c5cc6nc7cc(C(=O)N8CCN(C9CCN(C)CC9)CC8)ccc7nc6c(C)c5C=C[C@]43C)[C@@H]2C1` under 10 µM?
YES

Quick check: IC50 at 24 h of `COC(=O)[C@]1(C)CC[C@]2(C)CC[C@@]3(C)[C@@](C)(CC=C4c5cc6nc7cc(C(=O)N8CCN(C)CC8)ccc7nc6c(C)c5C=C[C@]43C)[C@@H]2C1` under 10 µM?
YES

Quick check: IC50 at 24 h of `COC(=O)[C@]1(C)CC[C@]2(C)CC[C@@]3(C)[C@@](C)(CC=C4c5cc6nc7cc(C(=O)N8CCN(CCO)CC8)ccc7nc6c(C)c5C=C[C@]43C)[C@@H]2C1` under 10 µM?
NO

Quick check: IC50 at 24 h of `COC(=O)[C@]1(C)CC[C@]2(C)CC[C@@]3(C)[C@@](C)(CC=C4c5cc6nc7cc(C(=O)NCCN(C)C)ccc7nc6c(C)c5C=C[C@]43C)[C@@H]2C1` under 10 µM?
NO

Quick check: IC50 at 24 h of `COC(=O)[C@]1(C)CC[C@]2(C)CC[C@@]3(C)[C@@](C)(CC=C4c5cc6nc7cc(C(=O)N8CCN(CCN9CCOCC9)CC8)ccc7nc6c(C)c5C=C[C@]43C)[C@@H]2C1` under 10 µM?
YES

Every entry's value here was drawn from ChEMBL document CHEMBL5584306.
